Tested on: PfSIP2 AP2 domain 1 (GST-tagged)
Assay: gcPBM binding intensity (ln(normalized median fluorescence intensity)); higher = stronger DNA binding
The full ranking holds about 25,000 sequences; the median of “ln(normalized median fluorescence intensity)” is about 7.1, and the highest 2% start at about 10. Only a selection was taken, and the highest values are over-represented in it overall.
Please respond with reported gcPBM binding intensity (ln) for every item in the list.

Prompt line: Given the sequence TTTTTCTTTTTTTTTTTAATAATATATAACAAATTT [CACACA_negctrl_site1724] , what is its reported gcPBM binding intensity (ln)?
Response line: 6.81

Prompt line: Given the sequence AAAAATAATCATTAGGTGCAAAAAATATATATATAT [GTGCAC_site9631] , what is its reported gcPBM binding intensity (ln)?
Response line: 9.96

Prompt line: Given the sequence TTTAATTTATATTTTGTGCACATCTTATTATATATA [GTGCAC_site9630] , what is its reported gcPBM binding intensity (ln)?
Response line: 9.58

Prompt line: Given the sequence ATATTTTTATATGAGGTGCATATAATGACAATTAAG , what is its reported gcPBM binding intensity (ln)?
Response line: 10.6

Prompt line: Given the sequence TATTTATTTTTTTTTGTGCACTTAATATAATCTTAC , what is its reported gcPBM binding intensity (ln)?
Response line: 10.4

Prompt line: Given the sequence ATATATAAAAATTAGGTGCATTAAATTAAAATATAT , what is its reported gcPBM binding intensity (ln)?
Response line: 10.3

Prompt line: Given the sequence ATTTCTTTTGTTATAGTGCATAATATTTATGTACGT , what is its reported gcPBM binding intensity (ln)?
Response line: 8.59

Prompt line: Given the sequence ACTAATAATTTGTCGGTGCATAAAATTATTTTTATT [GTGCAC_site9840] , what is its reported gcPBM binding intensity (ln)?
Response line: 10.7

Prompt line: Given the sequence ATATATATATATATAGTGCATAATGTTTTAATAGAT , what is its reported gcPBM binding intensity (ln)?
Response line: 9.54

Prompt line: Given the sequence CATATAAGACAAAAGGTGCAATTTTAATGCTTTTAT [GTGCAC_site9432] , what is its reported gcPBM binding intensity (ln)?
Response line: 9.98

###

Please respond with reported gcPBM binding intensity (ln) for every item in the list.
Tested on: PfSIP2 AP2 domain 1 (GST-tagged)
Assay: gcPBM binding intensity (ln(normalized median fluorescence intensity)); higher = stronger DNA binding
Whole data set: some 25,000 sequences, median “ln(normalized median fluorescence intensity)” near 7.1, cut for the highest 2% near 10. This excerpt belongs to a sample that is enriched for the highest values.

Prompt line: Given the sequence TATATATGCATTAAAGTGTTTTTTTTTTTTTTTTTT [CACACA_negctrl_site1353] , what is its reported gcPBM binding intensity (ln)?
Response line: 7.72

Prompt line: Given the sequence AGTGTTTTTTATAAAGTGCAATATAAAAACAAAATG , what is its reported gcPBM binding intensity (ln)?
Response line: 8.59

Prompt line: Given the sequence CTATAATATTAGTGCACACACAAAAATGTACTAAAC [CACACA_site6442] , what is its reported gcPBM binding intensity (ln)?
Response line: 11.3

Prompt line: Given the sequence TTTGAAAAGTATGAGGTGCAAAAAATGTAATGAAAT , what is its reported gcPBM binding intensity (ln)?
Response line: 10.2

Prompt line: Given the sequence CTATAATAACATAACACACACATGTATTTATAGGTG [CACACA_site6298] , what is its reported gcPBM binding intensity (ln)?
Response line: 7.05

Prompt line: Given the sequence TTAATATTGTATTTCACACATAATTTAATATACTCA [CACACA_site5678] , what is its reported gcPBM binding intensity (ln)?
Response line: 6.87

Prompt line: Given the sequence GTATATGAGAAAAAAAGTACATGCACAAAATGTATA [XGTACX_site6441] , what is its reported gcPBM binding intensity (ln)?
Response line: 7.42

Prompt line: Given the sequence CTTATTTTGTTATAAGTGCATTTTTTAAAATTTCTT , what is its reported gcPBM binding intensity (ln)?
Response line: 9.64

Prompt line: Given the sequence AAAAAAACATAACAAAATGAAACAAAACAAAAAGAA [GTGCAC_negctrl_site577] , what is its reported gcPBM binding intensity (ln)?
Response line: 7.28

Prompt line: Given the sequence AAAAATATAATATAATGTACACATAAACAAAAAAAA [XGTACX_site3658] , what is its reported gcPBM binding intensity (ln)?
Response line: 7.04

Prompt line: Given the sequence TATATTTATATCATCACACATTTTTTTTTTCTTTTT [CACACA_site6150] , what is its reported gcPBM binding intensity (ln)?
Response line: 6.58

Prompt line: Given the sequence TATTGTATATAATAAACACACAATATTAAAAATATA [CACACA_site1057] , what is its reported gcPBM binding intensity (ln)?
Response line: 6.8

Prompt line: Given the sequence CCCTATATAAATAGCTGTACATTTGAACATGTTCAG [XGTACX_site2187] , what is its reported gcPBM binding intensity (ln)?
Response line: 6.97

Prompt line: Given the sequence ATTTATTTCTTGTTAGTGCACTTTCTTTGGTAAAAT , what is its reported gcPBM binding intensity (ln)?
Response line: 11.1

Prompt line: Given the sequence TGTTAAAATTATTTGGTGCACTTGTTTTACCTTATT , what is its reported gcPBM binding intensity (ln)?
Response line: 11.3

Prompt line: Given the sequence TTTATAAAGGGAAAGGTGCAAAAGGTGAAAGTTTTA , what is its reported gcPBM binding intensity (ln)?
Response line: 10.8

Prompt line: Given the sequence CACATATACAAAAAGAAATGTTTAGTTGAAAATTAA [CACACA_negctrl_site1407] , what is its reported gcPBM binding intensity (ln)?
Response line: 6.67

Prompt line: Given the sequence AAAGAATTTGCATATACACACAAAAAAATAAATACA [CACACA_site4373] , what is its reported gcPBM binding intensity (ln)?
Response line: 7.03

Prompt line: Given the sequence ATATATATATATAAAGTGCAAAAATGAAAGTAAGAC [GTGCAC_site9850] , what is its reported gcPBM binding intensity (ln)?
Response line: 9.25

Prompt line: Given the sequence TCATTAAAGGAAAAATGTACGTATAAATAAATATAT [XGTACX_site2587] , what is its reported gcPBM binding intensity (ln)?
Response line: 7.07

Prompt line: Given the sequence ACTGCGTTTTTACACGCGCACTGCAATGAACAATAT , what is its reported gcPBM binding intensity (ln)?
Response line: 8.05

Prompt line: Given the sequence TATTAACTCAATAGCGCACACTTTTAATATTTTATA [CACACA_site4973] , what is its reported gcPBM binding intensity (ln)?
Response line: 7.33

Prompt line: Given the sequence ATAATAAATACACTAGTGCAAAATAATATATGTACT [GTGCAC_site9707] , what is its reported gcPBM binding intensity (ln)?
Response line: 8.13

Prompt line: Given the sequence TCCCCTTAATTTAAAACACACAAACAAATAAGTTAG [CACACA_site5973] , what is its reported gcPBM binding intensity (ln)?
Response line: 6.91

Prompt line: Given the sequence AATTATATGAAATAAACACACATATGTAATATTACA [CACACA_site1928] , what is its reported gcPBM binding intensity (ln)?
Response line: 6.76

Prompt line: Given the sequence ATATACATATCAATGTAATATTATATACTTTTTTAG [CACACA_negctrl_site816] , what is its reported gcPBM binding intensity (ln)?
Response line: 6.77

Prompt line: Given the sequence TGATGATATAAAAACACACACATATAACATAATACT [CACACA_site6687] , what is its reported gcPBM binding intensity (ln)?
Response line: 7.04

Prompt line: Given the sequence TTTTGTTATTTTTCAGTGCAATATGATAATAATATA , what is its reported gcPBM binding intensity (ln)?
Response line: 7.72

Prompt line: Given the sequence AATAATTCATCATATGCACACACAATACCAAAATGT [CACACA_site7945] , what is its reported gcPBM binding intensity (ln)?
Response line: 8.05

Prompt line: Given the sequence AAAAATATAATATAATGTACACAAAAAAAAAAAAAT [XGTACX_site4914] , what is its reported gcPBM binding intensity (ln)?
Response line: 7.13

Prompt line: Given the sequence ACAAAAAAAAACGTGGTGCATTAATAATATTGTATA [GTGCAC_site9469] , what is its reported gcPBM binding intensity (ln)?
Response line: 10.3

Prompt line: Given the sequence TTTTTTGTTATGCGGGTGCATATAATAATGTGATGA , what is its reported gcPBM binding intensity (ln)?
Response line: 10.8

Prompt line: Given the sequence TTAAATACTAAAAAGTGTACACATACATAAAAAATT [XGTACX_site6261] , what is its reported gcPBM binding intensity (ln)?
Response line: 7.32

Prompt line: Given the sequence ATCACAAAATGGAATGTTCTATGATATATATGTATA [XGTACX_negctrl_site460] , what is its reported gcPBM binding intensity (ln)?
Response line: 7.02

Prompt line: Given the sequence TGTTATTTTAAAAAAAAAATTATTAACTTAAAAAAA [CACACA_negctrl_site1641] , what is its reported gcPBM binding intensity (ln)?
Response line: 6.68

Prompt line: Given the sequence TGCTTTTCTTTTTGCACACTTATGCATATATATATA [CACACA_site2583] , what is its reported gcPBM binding intensity (ln)?
Response line: 9.5

Prompt line: Given the sequence ATTCCTTGGTTGTATAGTACTTTGGTTAAACATAAA [XGTACX_site6967] , what is its reported gcPBM binding intensity (ln)?
Response line: 7.4

Prompt line: Given the sequence TTTTATTTAGGAGGTGCATGTAATACGGAACATAAT [TGCATGCA_site827] , what is its reported gcPBM binding intensity (ln)?
Response line: 11.2

Prompt line: Given the sequence AATATTGTATATAATAAACACACAATATTAAAAATA [CACACA_site8262] , what is its reported gcPBM binding intensity (ln)?
Response line: 6.99

Prompt line: Given the sequence TTTGAATCCTTATATACACACATTATGTAATATTAT [CACACA_site561] , what is its reported gcPBM binding intensity (ln)?
Response line: 7.1
